# protocol text: protease stability score; higher = more stable; yeast display proteolysis, trypsin and chymotrypsin;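 also: relative to predicted unfolded state with 0 unfolded-like and 1 meaning tenfold more protease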
If the reported protease stability score equals or exceeds 1, assign 1 (yes). If not, assign 0 (no).

Reference set, count: 5
seq text | class name
REDEKLFEEVLRELVKWLTTGDEKQMRDLFDPNARREVNGVEVHGWEEFLRHVREDRKRYDHVKDIEIHHIDIQGDKLEINVTLVGHIDGKEDVIIFTILLRKVNGKWIVKEIQFH | 1 (yes)
SEDEKLAHLVTELMTHSDRTGDERILEHLLDPNTRVIINGVSYHGMEAYRHMVRHIRFHNWEIHDVDSVNGQVHVDSRAEGNIDGVRDILNTWIISDKYDGRWIISEIEII | 0 (no)
DEEEELVIHVAHEILHNHLTGDEERWEELADPRTKVEFNGVQNHGREFTNEYRKEFHNRYDHWEIRIRDYRVIDGVAHFDTELIIRQGDKEIRVKVHLEFIIVNGKVSEIRIEVR | 0 (no)
SELEHMLREVLHLLYESLETGDEELLETLVDPRMRLYINGQLIHGMDLAVEIELRRSREMRFRDWKIHSIHVQGNKAFMDVRHVGQINGVHISLEHEILIHKINGRWTIEERITK | 0 (no)
TEDMEVMRRILELFIELVTTGDWEILRELLDPNVRIEIGDKQLHGRELVSNSLLLLGVDHIRVKDMKIQGEKLHIETENEINGVKLNTHILLLKINGRWLIKDLSVK | 1 (yes)

Next:
Please tell me: is the sequence DEEKDLTEKIAHEIVHNYMTGDFDRFIELADPNVRFIIGDKIYHGREQLLTVLEHWRQEWRLSHVRLDEFEIQGDKVILHTTMNIKYGDKRIDVETEIKIIIINGRIRDWTIDRR at or over 1 in terms of protease stability score? 1 (yes)

###

# protocol text: protease stability score; higher = more stable; yeast display proteolysis, trypsin and chymotrypsin;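 also: relative to predicted unfolded state with 0 unfolded-like and 1 meaning tenfold more protease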
protease stability score by entry:
Give the value as a plain number.

Guide cases for protease stability score, answers given:
seq text | protease stability score
DERERDIREWMRIYIEMWETGDEDKLLTMIDPHYREETENEDIHGREQAHKKIKDIKERADHLHIRVHDVDIIDGVAVLDVEILIIIGDKVIRVRTTIIMRKINGKWFIERVHIK | 0.235
DEINEDLERQARLFYHLWLTGDEEILEKLVDPHVRIILVFNGVPKQDHGREWLMKLFEEIRVEHFEIKTFEIQGEKAIMDTHEIIHVNGKRTRLRVHLWLTMVNGRIKTIEIRFV | 2.13
TEDERHLEESIELFHEVHRTGDEEQLHRMLDPSVRVDVNGRILHGREIVVEWLRRTLEKFKNVQIEFILKDRDHINGVLRIHGVLLVNVGDKHTIIDTIIVAHKVNGRWLIHSMHVK | 2.15

Returns the measured protease stability score for the input sequence. Input: DDEERQAREFLKNYIRSLLTGDEDTLDELVDPNARWHVGDYHMIGRDSVSFLTKHLRIKHIEIKDIEIYGNKAIVLVHMHGIIDGKERDTDIIIFVEKINGQWKVREHRIS 1.15

Returns the measured protease stability score for the input sequence. Input: DESEELTEELSRLWLHWYLTGDEEIFKHNFDPNARQDYNGKEIHGRDRVVRFLEELWRMLGAKHFHIRHEEYYGNKVRIEGHITVGDKHRETEIQINIINGKIKEIRIEVK 2.12

Returns the measured protease stability score for the input sequence. Input: DDEEKLSKDASELWKKSMLTGDEDTLMKLADPHTRLEIRIGDKTDEIHGMEWVAHLLTNLGIDHFILRDEHIQGEKVIIRGEIDINGRTHESIIIVIIINGRLKSVTFIKL 0.94

Returns the measured protease stability score for the input sequence. Input: SELEEEALHLMELYLKSVMTGDEESIRRLADPNVRFEVDINGKKLELHGWKEETKFWREIWVRELRVRDKDAIGNKVHSVVEINVDVNGKEIRRESEEHYIIVDGRLHIISFRVN 1.27

Returns the measured protease stability score for the input sequence. Input: SEEEKETEHVLRLFLEIFHTGDWKTLHELFDPHVRLNVGDKHWIGRENVVEQIRHFLERFKNARFHIHRIHIVGDFNDVRTEITINGRTHDTRLWLQVIDGRIESMEIKMN 2.44

Returns the measured protease stability score for the input sequence. Input: REKDDEMDRIVKIFYHVLRTGNEELLDTLIDPDTRIEVDINGVNYISHGREEWKRVIEELLRHMRINSIIIHDIRYQGNKATIDNHADLEFDGVRFEMRSELRIIVVNGRYRSFSRIIR 1.13

Returns the measured protease stability score for the input sequence. Input: SEIERLLEEWMELVIHSWLTGNEELFTRMFDPNTRLEVEVGDKHDRHIGREEANKWMETLRREIRIEDIEIKEVRIFDGVAHNDGTLHRRVGDKKDYVRVRLILIIYNGKIHHVKIIVR 1.03

Returns the measured protease stability score for the input sequence. Input: DEHEELLRRLADEWFKSLLTGDEDRLLELADPNMRIRLLINGRDEKIHGWEELVRWFREIRFRSMDIDSFTLVNGKIQIRFKYRGRVNGQTHETRSEFLLIVIDGKVTHVEVRLE 2.46
